# assay name: Micafungin concentrations in cerebrospinal fluid of infants with Candida meningitis (HPLC)
# Assay type: in vivo
# run parameters: human, CSF (ratio to plasma), iv, 10 mg/kg/day, Patient 2, dose 10 mg/kg/day iv; read-out: CSF/plasma ratio before infusion
*1 amine or outer side, *2 acyl side, *3 side chain or, on linkers, in order; H or OH if unused. Where a SMILES comes first, the peptide text is derived from it. Bridges are numbered along the chain shown (N, C = ends). [ ]: non-standard residue; d: D form. The star is where a group is joined. hTyr(3S-OH,4S-OH,3'-OSO3H) = N[C@H](C(=O)O)[C@H](O)[C@@H](O)c1ccc(O)c(OS(=O)(=O)O)c1; Orn(4R-OH,5R-OH) = O=C([C@H](C[C@@H](O)[C@@H](O)N[*:3])N[*:1])[*:2]; Pro(3S-OH,4S-Me) = C[C@H]1CN[C@H](C(=O)O)[C@H]1O; X1 = CCCCCOc1ccc(-c2cc(-c3ccc(C(=O)*)cc3)no2)cc1; Gln(3R-OH) = NC(=O)C[C@@H](O)[C@H](N)C(=O)O; Hyp = O=C(O)[C@@H]1C[C@@H](O)CN1
reported metric: Kp
Answer using only a numeral; do not append any unit.

Kp measured on CCCCCOc1ccc(-c2cc(-c3ccc(C(=O)N[C@H]4C[C@@H](O)[C@@H](O)NC(=O)[C@@H]5[C@@H](O)[C@@H](C)CN5C(=O)[C@H]([C@H](O)CC(N)=O)NC(=O)[C@H]([C@H](O)[C@@H](O)c5ccc(O)c(OS(=O)(=O)O)c5)NC(=O)[C@@H]5C[C@@H](O)CN5C(=O)[C@H]([C@@H](C)O)NC4=O)cc3)no2)cc1 [micafungin] (X1-[Orn(4R-OH,5R-OH)]T[Hyp][hTyr(3S-OH,4S-OH,3'-OSO3H)][Gln(3R-OH)][Pro(3S-OH,4S-Me)]; lactam 1-C) = 0.06

* * *

# assay name: Micafungin concentrations in cerebrospinal fluid of infants with Candida meningitis (HPLC)
# Type: in vivo
# run parameters: human, cerebrospinal fluid, iv, 10 mg/kg/day, Patient 1, dose 10 mg/kg/day iv; HPLC; read-out: CSF values after 1 h
*1 amine or outer side, *2 acyl side, *3 side chain or, on linkers, in order; H or OH if unused. Where a SMILES comes first, the peptide text is derived from it. Bridges are numbered along the chain shown (N, C = ends). [ ]: non-standard residue; d: D form. The star is where a group is joined. hTyr(3S-OH,4S-OH,3'-OSO3H) = N[C@H](C(=O)O)[C@H](O)[C@@H](O)c1ccc(O)c(OS(=O)(=O)O)c1; Orn(4R-OH,5R-OH) = O=C([C@H](C[C@@H](O)[C@@H](O)N[*:3])N[*:1])[*:2]; Pro(3S-OH,4S-Me) = C[C@H]1CN[C@H](C(=O)O)[C@H]1O; X1 = CCCCCOc1ccc(-c2cc(-c3ccc(C(=O)*)cc3)no2)cc1; Gln(3R-OH) = NC(=O)C[C@@H](O)[C@H](N)C(=O)O; Hyp = O=C(O)[C@@H]1C[C@@H](O)CN1
reported metric: level at 1 h (ng/mL)
// units = ng/mL; emit number, no label

level at 1 h measured on CCCCCOc1ccc(-c2cc(-c3ccc(C(=O)N[C@H]4C[C@@H](O)[C@@H](O)NC(=O)[C@@H]5[C@@H](O)[C@@H](C)CN5C(=O)[C@H]([C@H](O)CC(N)=O)NC(=O)[C@H]([C@H](O)[C@@H](O)c5ccc(O)c(OS(=O)(=O)O)c5)NC(=O)[C@@H]5C[C@@H](O)CN5C(=O)[C@H]([C@@H](C)O)NC4=O)cc3)no2)cc1 [micafungin] (X1-[Orn(4R-OH,5R-OH)]T[Hyp][hTyr(3S-OH,4S-OH,3'-OSO3H)][Gln(3R-OH)][Pro(3S-OH,4S-Me)]; lactam 1-C) = 1230
